Reported glycan array binding signal (z-score) by item:
molecular target: Fuc(a1-2)[Gal(a1-3)]Gal(b1-4)GlcNAc(b1-3)[Fuc(a1-2)[Gal(a1-3)]Gal(b1-4)GlcNAc(b1-6)]GalNAc; test: glycan array binding signal (z-score within array); higher = stronger binding; conditions: glycan notation: IUPAC condensed, linker removed
The entries come from a sample that favours the strongest signals as a whole.
Lab note: write the figure by itself, no unit.

The examples below pair each entry with its known result.
binder	glycan array binding signal (z-score)
Mermaid2 (Stilbonema majum) (protein) MGSSHHHHHHSSGLVPRGSHMAASGWLRSPQGTVVKLYRRSLSWSKADEFCKDVDGRLVVDRTADMHLFLIKNVLKEKKSRVWVGLRRTAPHSRTWIWSDGTRQNEDDLNTNLWLRDEPNDAAGEEECALFMYSPWEKAWGLNDYLCRGGCRSYQFICEKGIR	-0.477
MSMEG3662-2a (Mycobacterium smegmatis), A0QYH7_MYCS2 (protein) MGDTLTAGQKLERGGSLQSGNGAYTLTLQDDGNLVLYARDKAVWSTGTNGQDVVRAEVQTDGNFVLYTAEKPVWHTDTKGKKEVKLVLQDDRNLVLYAKDGPAWSSKTDTTEPPPPAPEPEKEAEVAPAAAEEAAPAPVAEPAPAEPAPAAPPPAPPAPRTYTVVSGDTLWAIAERFYGDGSKYQQIADASGIANPDLIHPGQVLTIP	0.285

input: Reported glycan array binding signal (z-score) for Dectin2 (Homo sapiens), Q6EIG7 (protein) MMQEQQPQSTEKRGWLSLRLWSVAGISIALLSACFIVSCVVTYHFTYGETGKRLSELHSYHSSLTCFSEGTKVPAWGCCPASWKSFGSSCYFISSEEKVWSKSEQNCVEMGAHLVVFNTEAEQNFIVQQLNESFSYFLGLSDPQGNNNWQWIDKTPYEKNVRFWHLGEPNHSAEQCASIVFWKPTGWGWNDVICETRRNSICEMNKIYL : what is it?
output: -0.136
